- EXPERIMENT_SUMMARY: Plasma concentration and TK after 30-min IV infusion at 2 mg/kg
- Format: in vivo, Cynomolgus monkeys
- PARTICULARS: female, Cynomolgus, cynomolgus monkey, plasma, iv, 2 mg/kg
What AUC(0-t) was measured for each of the following?
Enter the number, and then the unit.

- MOLECULE: "C[C@H](OP(=O)(N1CC1)N1CC1)c1ccc([N+](=O)[O-])c(Oc2cccc(C(=O)N(C)C)c2)c1 (single isomer, unassigned)"
  AUC(0-t): "1200 ng·h/mL"

Now consider the entry below.
The molecule listed as C[C@@H](OP(=O)(N1CC1)N1CC1)c1ccc([N+](=O)[O-])c(Oc2cccc(C(=O)N(C)C)c2)c1 (single isomer, unassigned) shows AUC(0-t) equal to 758 ng·h/mL
